Origin of values: patent US10239887B2

TARGET OF ASSAY: human mAChR M4 (Homo sapiens, UniProt P08173)
ASSAY DETAILS: mAChR M4 cell-based functional assay (calcium flux), human M4
ASSAY CONDITIONS: Human M4 EC50 (nM), Table 11; calcium flux, PAM activity with EC20 acetylcholine
Where a name gives a salt, the structure may show the parent alone.
TEST READOUT: EC50 (nM)

a. Cc1cc(O[C@@H]2CCN(c3ncnc4c3sc3nnc(C)c(C)c34)C2)ccn1
b. Cc1nnc2sc3c(N4CC[C@H](Oc5ccc(C(F)(F)F)cn5)C4)ncnc3c2c1C [Compound 360, dihydrochloride]
Enquiry: Param pair: a , b . Output: the one whose EC50 is numerically greater. Mark your answer with the label of the selected entry.
Return: b
(b: 333 nM, a: 73.4 nM)

A. Cc1nnc2sc3c(N4CC[C@@H](Oc5ccnc(C(F)(F)F)c5)C4)ncnc3c2c1C
B. Cc1nnc2sc3c(N4CC(Oc5cnn(C)c5)C4)ncnc3c2c1C [Compound 357, dihydrochloride]
Enquiry: Between A and B , whose recorded EC50 is greater? To answer, give the label that identifies your chosen option.
Return: B

* * *

ASSAY DETAILS: intrinsic clearance, cyno
Type: in vitro ADME
ASSAY CONDITIONS: cynomolgus monkey
TEST READOUT: CLint scaled (mL/min/kg)
All answers are understood in mL/min/kg, so give the number only.

Enquiry: Item under review: Cc1nnc2sc3c(NCc4ccc(C(C)(C)O)cc4)ncnc3c2c1C . Reported CLint scaled?
Return: 102

* * *

TARGET OF ASSAY: UniProt:P08173
Sequence (P08173 1-479): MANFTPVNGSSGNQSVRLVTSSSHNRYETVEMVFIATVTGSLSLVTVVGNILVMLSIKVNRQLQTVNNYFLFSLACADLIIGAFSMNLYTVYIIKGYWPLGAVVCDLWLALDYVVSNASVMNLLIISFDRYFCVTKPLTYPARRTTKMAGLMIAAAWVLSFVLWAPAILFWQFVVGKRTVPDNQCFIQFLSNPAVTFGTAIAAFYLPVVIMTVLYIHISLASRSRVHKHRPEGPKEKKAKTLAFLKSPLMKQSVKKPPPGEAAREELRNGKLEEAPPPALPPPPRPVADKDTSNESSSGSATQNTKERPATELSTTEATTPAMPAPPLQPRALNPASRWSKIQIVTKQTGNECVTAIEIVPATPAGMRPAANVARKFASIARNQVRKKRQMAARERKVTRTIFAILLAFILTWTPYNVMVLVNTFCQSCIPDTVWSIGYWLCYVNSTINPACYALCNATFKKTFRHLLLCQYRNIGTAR
ASSAY DETAILS: mAChR M4 cell-based functional assay (calcium flux), human M4
ASSAY CONDITIONS: Table 11; % ACh maximum at 30 μM
Counter-ions that a name gives are not always drawn.
TEST READOUT: Emax (%)

Enquiry: Given the entry Cc1nnc2sc3c(NCc4ccc(C(=O)NC5CC5)c(Cl)c4)ncnc3c2c1C , what Emax was observed with UniProt:P08173?
Return: 75.2

Enquiry: And then Cc1nnc2sc3c(N4CC(COc5ccnc(Cl)c5)C4)ncnc3c2c1C [Compound 348, dihydrochloride] , what is it?
Return: 65.7

Enquiry: Now give it for Cc1nnc2sc3c(NCc4ccc(-n5cccn5)cc4)ncnc3c2c1C too.
Return: 87.1

Enquiry: Next molecule: Cc1nnc2sc3c(NCc4ccc(C(=O)NC(C)C5(CO)CC5)c(Cl)c4)ncnc3c2c1C (centres unmarked)
Return: 76.3

Enquiry: And the next one, Cc1nnc2sc3c(NCc4ccc(-c5ccnn5C)cc4F)ncnc3c2c1C ?
Return: 70.9

Enquiry: Now give it for Cc1nnc2sc3c(NCc4ccc(C(=O)N[C@H](C)C(F)(F)F)c(Cl)c4)ncnc3c2c1C too.
Return: 81.1

Enquiry: Field entry: Cc1nnc2sc3c(N4CC[C@H](Oc5ccc(C(F)(F)F)cn5)C4)ncnc3c2c1C [Compound 360, dihydrochloride]
Return: 56

Enquiry: Please answer likewise for Cc1nnc2sc3c(NCc4cccc(-c5ncccn5)c4)ncnc3c2c1C
Return: 64.6

* * *

TARGET OF ASSAY: human mAChR M4 (Homo sapiens, UniProt P08173)
ASSAY DETAILS: mAChR M4 cell-based functional assay (calcium flux), human M4
ASSAY CONDITIONS: Table 10; % ACh maximum at 30 μM
Where a name gives a salt, the structure may show the parent alone.
TEST READOUT: Emax (%)

Consider the worked cases shown below.
Enquiry: Identify the measured Emax of Cc1nc2oc3c(NC4CC4c4ccc(F)c(F)c4)ncnc3c2c(C)c1Cl (centres unmarked) [Compound 247, hydrochloride] for human mAChR M4 (Homo sapiens, UniProt P08173).
Return: 70

Enquiry: Do the same for Cc1nnc2sc3c(NCc4ccc(C(F)(F)F)nc4)ncnc3c2c1C [Compound 146, hydrochloride] please
Return: 97.7

Enquiry: What about this molecule? Cc1nnc2sc3c(NC4CC4c4ccc(F)c(F)c4)ncnc3c2c1C (centres unmarked)
Return: 98.4

Enquiry: Note, next up: Cc1nnc2sc3c(NC(C)c4ccc(C5(O)CCC5)cc4)ncnc3c2c1C (centres unmarked)
Return: 59.2

a. Cc1nnc2oc3c(NC4CN(c5ccc(F)c(F)c5)C4)ncnc3c2c1C
b. CCNc1ncnc2c1oc1nc(C)c(Cl)c(C)c12 [Compound 287, hydrochloride]
Enquiry: Compare the recorded Emax of a and b ; state which is larger. Response format: the label of the selected entry.
Return: a
(a: 73%, b: 40.6%)

* * *

TARGET OF ASSAY: human mAChR M4 (Homo sapiens)
ASSAY DETAILS: mAChR M4 cell-based functional assay (calcium flux), human M4
ASSAY CONDITIONS: Human M4 EC50 (nM), Table 10; calcium flux, PAM activity with EC20 acetylcholine
TEST READOUT: EC50 (nM)

Enquiry: Which EC50 is reported for this compound? Cc1nnc2sc3c(NC(C)c4ccc(C5(O)CCC5)cc4)ncnc3c2c1C (centres unmarked) [Compound 101]
Return: 839

I. COc1nnc2sc3c(NC4CN(c5ncc(C(F)(F)F)cn5)C4)ncnc3c2c1C [Compound 282]
II. Cc1nnc2sc3c(NCc4ccc(OCC5CC5)c(F)c4)ncnc3c2c1C [Compound 91]
Enquiry: Which value of EC50 is greater, the one for I or the one for II ? Your choice should be expressed through its label.
Return: II

A. Cc1nnc2sc3c(NCc4ccc(C(=O)N5CCCC5)cc4)ncnc3c2c1C [Compound 122]
B. COCC1CN(c2ncnc3c2sc2nc(C)cc(C)c23)C1 [Compound 194]
Enquiry: Please tell me which of the two, A or B , has the higher reported EC50 value. Give the label under which the chosen entry appears.
Return: B

* * *

Target sequence: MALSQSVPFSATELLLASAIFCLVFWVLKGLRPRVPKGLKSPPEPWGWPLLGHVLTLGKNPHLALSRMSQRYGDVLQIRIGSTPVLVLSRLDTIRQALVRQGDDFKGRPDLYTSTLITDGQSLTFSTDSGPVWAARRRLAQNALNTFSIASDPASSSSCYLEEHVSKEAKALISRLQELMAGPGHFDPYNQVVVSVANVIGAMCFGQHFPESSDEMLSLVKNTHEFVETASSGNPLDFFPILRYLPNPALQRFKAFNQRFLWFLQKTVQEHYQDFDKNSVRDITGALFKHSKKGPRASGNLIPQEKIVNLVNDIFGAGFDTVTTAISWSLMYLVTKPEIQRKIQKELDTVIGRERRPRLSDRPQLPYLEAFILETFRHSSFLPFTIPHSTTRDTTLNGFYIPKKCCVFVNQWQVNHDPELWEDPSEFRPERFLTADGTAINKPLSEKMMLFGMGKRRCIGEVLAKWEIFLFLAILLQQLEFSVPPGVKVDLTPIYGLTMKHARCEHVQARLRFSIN
TEST READOUT: IC50

Enquiry: Any idea what its IC50 is? The compound is Cc1nnc2sc3c(NCc4ccc(C(C)(C)O)cc4)ncnc3c2c1C
Return: > 30 µM

* * *

ASSAY DETAILS: in vivo
ASSAY CONDITIONS: cynomolgus monkey, plasma
TEST READOUT: clearance (mL/min/kg)
Dear colleague, please return just the value in mL/min/kg, with no unit written.

Enquiry: I'd like to know its clearance. The molecule in question is Cc1nnc2sc3c(NCc4ccc(C(C)(C)O)cc4)ncnc3c2c1C
Return: 5.3

* * *

TARGET OF ASSAY: human mAChR M4 (Homo sapiens)
Sequence (P08173 1-479): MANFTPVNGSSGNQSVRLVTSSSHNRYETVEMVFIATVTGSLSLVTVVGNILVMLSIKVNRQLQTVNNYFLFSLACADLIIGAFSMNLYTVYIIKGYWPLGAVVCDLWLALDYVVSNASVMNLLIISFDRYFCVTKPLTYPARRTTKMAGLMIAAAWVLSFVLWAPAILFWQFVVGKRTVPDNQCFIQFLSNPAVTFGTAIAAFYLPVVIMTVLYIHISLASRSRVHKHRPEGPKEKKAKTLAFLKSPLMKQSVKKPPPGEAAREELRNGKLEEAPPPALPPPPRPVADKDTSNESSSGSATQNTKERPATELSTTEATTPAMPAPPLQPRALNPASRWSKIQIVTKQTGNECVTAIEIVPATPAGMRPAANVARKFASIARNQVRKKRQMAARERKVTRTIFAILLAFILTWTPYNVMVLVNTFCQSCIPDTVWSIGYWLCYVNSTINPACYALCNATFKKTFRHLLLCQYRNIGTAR
ASSAY DETAILS: mAChR M4 cell-based functional assay (calcium flux), human M4
ASSAY CONDITIONS: Human M4 EC50, CHO-K1 hM4-Gqi5 cells; calcium flux; increase in EC20 acetylcholine response
Counter-ions that a name gives are not always drawn.
TEST READOUT: EC50 (nM)

Recorded EC50, per entry:
Enquiry: Can you look up the measured EC50 of Cc1nnc2sc3c(N4CC(Oc5ccccc5F)C4)ncnc3c2c1C [Compound 31] for me?
Return: 2160

Enquiry: Also Cc1nnc2oc3c(NC4CCCC4)ncnc3c2c1C [Compound 70] , if possible.
Return: 818

Enquiry: Next molecule up: Cc1nnc2sc3c(NC4CN(c5ncc(C(F)(F)F)cn5)C4)ncnc3c2c1C [Compound 7]
Return: 251

Enquiry: Also check Cc1nnc2sc3c(N4CCC(N(C)C)C4)ncnc3c2c1C (stereo not shown) [Compound 11]
Return: 257

Enquiry: Proceed to Cc1nnc2sc3c(N4CCC4)ncnc3c2c1C [Compound 9]
Return: 351

a. Cc1cnc2sc3c(N4CC5(COC5)C4)ncnc3c2c1 [Compound 19]
b. Cc1nc2oc3c(NC4CC4c4ccc(F)c(F)c4)ncnc3c2c(C)c1Cl (stereo not shown) [Compound 51, hydrochloride]
c. Cc1nnc2sc3c(N4CC(C)(O)C4)ncnc3c2c1C [Compound 34]
d. Cc1nc2oc3c(NCc4ccc(C(C)(C)O)cc4)ncnc3c2c(C)c1Cl [Compound 39]
Enquiry: Sort entries by EC50 from minimum to maximum value. Respond with an ordered listing of the labels, as requested.
Return: d, a, c, b
